Ref: BigSolDB 2.1

Conditions: in n-propanol, 293.15 K
experimental-endpoint: solubility (mole fraction)

query: I would be grateful if you could share the reported solubility (mole fraction) for CCCN(CCC)S(=O)(=O)c1ccc(C(=O)O)cc1 .
result: 0.00841

###

Conditions: in n-propanol, 313.15 K
experimental-endpoint: solubility (mole fraction)
Output spec: single numeric token, no unit.

query: I would be grateful if you could share the reported solubility (mole fraction) for CCCN(CCC)S(=O)(=O)c1ccc(C(=O)O)cc1 .
result: 0.0207

###

Settings: in ethyl acetate, 293.15 K
experimental-endpoint: solubility (mole fraction)
Output spec: single numeric token, no unit.

query: I would be grateful if you could share the reported solubility (mole fraction) for CCCN(CCC)S(=O)(=O)c1ccc(C(=O)O)cc1 .
result: 0.00548

###

Conditions: in ethyl acetate, 323.15 K
experimental-endpoint: solubility (mole fraction)
Output spec: single numeric token, no unit.

query: I would be grateful if you could share the reported solubility (mole fraction) for CCCN(CCC)S(=O)(=O)c1ccc(C(=O)O)cc1 .
result: 0.0164

###

Details: in ethyl acetate, 313.15 K
experimental-endpoint: solubility (mole fraction)
Output spec: single numeric token, no unit.

query: I would be grateful if you could share the reported solubility (mole fraction) for CCCN(CCC)S(=O)(=O)c1ccc(C(=O)O)cc1 .
result: 0.0118

###

Conditions: in n-pentanol, 308.15 K
experimental-endpoint: solubility (mole fraction)
Output spec: single numeric token, no unit.

query: I would be grateful if you could share the reported solubility (mole fraction) for CCCN(CCC)S(=O)(=O)c1ccc(C(=O)O)cc1 .
result: 0.0194

###

Details: in MTBE, 313.15 K
experimental-endpoint: solubility (mole fraction)
Output spec: single numeric token, no unit.

query: I would be grateful if you could share the reported solubility (mole fraction) for CCCN(CCC)S(=O)(=O)c1ccc(C(=O)O)cc1 .
result: 0.0129

###

Settings: in acetone, 318.15 K
experimental-endpoint: solubility (mole fraction)

query: I would be grateful if you could share the reported solubility (mole fraction) for CCCN(CCC)S(=O)(=O)c1ccc(C(=O)O)cc1 .
result: 0.035

###

Conditions: in n-butanol, 293.15 K
experimental-endpoint: solubility (mole fraction)
Output spec: single numeric token, no unit.

query: I would be grateful if you could share the reported solubility (mole fraction) for CCCN(CCC)S(=O)(=O)c1ccc(C(=O)O)cc1 .
result: 0.0109

###

Settings: in n-butyl acetate, 298.15 K
experimental-endpoint: solubility (mole fraction)
Output spec: single numeric token, no unit.

query: I would be grateful if you could share the reported solubility (mole fraction) for CCCN(CCC)S(=O)(=O)c1ccc(C(=O)O)cc1 .
result: 0.00562

###

Conditions: in n-pentanol, 293.15 K
experimental-endpoint: solubility (mole fraction)
Output spec: single numeric token, no unit.

query: I would be grateful if you could share the reported solubility (mole fraction) for CCCN(CCC)S(=O)(=O)c1ccc(C(=O)O)cc1 .
result: 0.0123

###

Settings: in n-butanol, 318.15 K
experimental-endpoint: solubility (mole fraction)
Output spec: single numeric token, no unit.

query: I would be grateful if you could share the reported solubility (mole fraction) for CCCN(CCC)S(=O)(=O)c1ccc(C(=O)O)cc1 .
result: 0.026

###

Conditions: in acetone, 293.15 K
experimental-endpoint: solubility (mole fraction)
Output spec: single numeric token, no unit.

query: I would be grateful if you could share the reported solubility (mole fraction) for CCCN(CCC)S(=O)(=O)c1ccc(C(=O)O)cc1 .
result: 0.0176

###

Conditions: in methanol, 293.15 K
experimental-endpoint: solubility (mole fraction)
Output spec: single numeric token, no unit.

query: I would be grateful if you could share the reported solubility (mole fraction) for CCCN(CCC)S(=O)(=O)c1ccc(C(=O)O)cc1 .
result: 0.00609

###

Settings: in acetone, 298.15 K
experimental-endpoint: solubility (mole fraction)

query: I would be grateful if you could share the reported solubility (mole fraction) for CCCN(CCC)S(=O)(=O)c1ccc(C(=O)O)cc1 .
result: 0.0201

###

Conditions: in methanol, 318.15 K
experimental-endpoint: solubility (mole fraction)
Output spec: single numeric token, no unit.

query: I would be grateful if you could share the reported solubility (mole fraction) for CCCN(CCC)S(=O)(=O)c1ccc(C(=O)O)cc1 .
result: 0.0202

###

Conditions: in isopropanol, 323.15 K
experimental-endpoint: solubility (mole fraction)

query: I would be grateful if you could share the reported solubility (mole fraction) for CCCN(CCC)S(=O)(=O)c1ccc(C(=O)O)cc1 .
result: 0.0258

###

Conditions: in methanol, 323.15 K
experimental-endpoint: solubility (mole fraction)
Output spec: single numeric token, no unit.

query: I would be grateful if you could share the reported solubility (mole fraction) for CCCN(CCC)S(=O)(=O)c1ccc(C(=O)O)cc1 .
result: 0.0248

###

Conditions: in isobutanol, 318.15 K
experimental-endpoint: solubility (mole fraction)
Output spec: single numeric token, no unit.

query: I would be grateful if you could share the reported solubility (mole fraction) for CCCN(CCC)S(=O)(=O)c1ccc(C(=O)O)cc1 .
result: 0.0158

###

Conditions: in n-propanol, 308.15 K
experimental-endpoint: solubility (mole fraction)
Output spec: single numeric token, no unit.

query: I would be grateful if you could share the reported solubility (mole fraction) for CCCN(CCC)S(=O)(=O)c1ccc(C(=O)O)cc1 .
result: 0.0163

###

Settings: in ethyl acetate, 288.15 K
experimental-endpoint: solubility (mole fraction)
Output spec: single numeric token, no unit.

query: I would be grateful if you could share the reported solubility (mole fraction) for CCCN(CCC)S(=O)(=O)c1ccc(C(=O)O)cc1 .
result: 0.00459

###

Conditions: in ethanol, 283.15 K
experimental-endpoint: solubility (mole fraction)

query: I would be grateful if you could share the reported solubility (mole fraction) for CCCN(CCC)S(=O)(=O)c1ccc(C(=O)O)cc1 .
result: 0.00506

###

Details: in n-pentanol, 313.15 K
experimental-endpoint: solubility (mole fraction)
Output spec: single numeric token, no unit.

query: I would be grateful if you could share the reported solubility (mole fraction) for CCCN(CCC)S(=O)(=O)c1ccc(C(=O)O)cc1 .
result: 0.0228

###

Conditions: in n-butanol, 303.15 K
experimental-endpoint: solubility (mole fraction)
Output spec: single numeric token, no unit.

query: I would be grateful if you could share the reported solubility (mole fraction) for CCCN(CCC)S(=O)(=O)c1ccc(C(=O)O)cc1 .
result: 0.0158

###

Conditions: in MTBE, 303.15 K
experimental-endpoint: solubility (mole fraction)
Output spec: single numeric token, no unit.

query: I would be grateful if you could share the reported solubility (mole fraction) for CCCN(CCC)S(=O)(=O)c1ccc(C(=O)O)cc1 .
result: 0.00953

###

Conditions: in n-butyl acetate, 318.15 K
experimental-endpoint: solubility (mole fraction)
Output spec: single numeric token, no unit.

query: I would be grateful if you could share the reported solubility (mole fraction) for CCCN(CCC)S(=O)(=O)c1ccc(C(=O)O)cc1 .
result: 0.0118

###

Settings: in isopropanol, 313.15 K
experimental-endpoint: solubility (mole fraction)
Output spec: single numeric token, no unit.

query: I would be grateful if you could share the reported solubility (mole fraction) for CCCN(CCC)S(=O)(=O)c1ccc(C(=O)O)cc1 .
result: 0.018

###

Conditions: in n-pentanol, 318.15 K
experimental-endpoint: solubility (mole fraction)
Output spec: single numeric token, no unit.

query: I would be grateful if you could share the reported solubility (mole fraction) for CCCN(CCC)S(=O)(=O)c1ccc(C(=O)O)cc1 .
result: 0.0264

###

Details: in acetone, 283.15 K
experimental-endpoint: solubility (mole fraction)
Output spec: single numeric token, no unit.

query: I would be grateful if you could share the reported solubility (mole fraction) for CCCN(CCC)S(=O)(=O)c1ccc(C(=O)O)cc1 .
result: 0.013

###

Details: in methyl acetate, 303.15 K
experimental-endpoint: solubility (mole fraction)
Output spec: single numeric token, no unit.

query: I would be grateful if you could share the reported solubility (mole fraction) for CCCN(CCC)S(=O)(=O)c1ccc(C(=O)O)cc1 .
result: 0.00945

###

Details: in n-butyl acetate, 293.15 K
experimental-endpoint: solubility (mole fraction)

query: I would be grateful if you could share the reported solubility (mole fraction) for CCCN(CCC)S(=O)(=O)c1ccc(C(=O)O)cc1 .
result: 0.00474

###

Details: in n-butyl acetate, 313.15 K
experimental-endpoint: solubility (mole fraction)
Output spec: single numeric token, no unit.

query: I would be grateful if you could share the reported solubility (mole fraction) for CCCN(CCC)S(=O)(=O)c1ccc(C(=O)O)cc1 .
result: 0.00972

###

Details: in isopropanol, 293.15 K
experimental-endpoint: solubility (mole fraction)
Output spec: single numeric token, no unit.

query: I would be grateful if you could share the reported solubility (mole fraction) for CCCN(CCC)S(=O)(=O)c1ccc(C(=O)O)cc1 .
result: 0.0089

###

Conditions: in isobutanol, 293.15 K
experimental-endpoint: solubility (mole fraction)

query: I would be grateful if you could share the reported solubility (mole fraction) for CCCN(CCC)S(=O)(=O)c1ccc(C(=O)O)cc1 .
result: 0.00573
